All values here come from ChEMBL document CHEMBL4673402.

# MEASURED_ON: Indoleamine 2,3-dioxygenase 1 (Homo sapiens, UniProt P14902)
# Sequence (P14902 whole entry): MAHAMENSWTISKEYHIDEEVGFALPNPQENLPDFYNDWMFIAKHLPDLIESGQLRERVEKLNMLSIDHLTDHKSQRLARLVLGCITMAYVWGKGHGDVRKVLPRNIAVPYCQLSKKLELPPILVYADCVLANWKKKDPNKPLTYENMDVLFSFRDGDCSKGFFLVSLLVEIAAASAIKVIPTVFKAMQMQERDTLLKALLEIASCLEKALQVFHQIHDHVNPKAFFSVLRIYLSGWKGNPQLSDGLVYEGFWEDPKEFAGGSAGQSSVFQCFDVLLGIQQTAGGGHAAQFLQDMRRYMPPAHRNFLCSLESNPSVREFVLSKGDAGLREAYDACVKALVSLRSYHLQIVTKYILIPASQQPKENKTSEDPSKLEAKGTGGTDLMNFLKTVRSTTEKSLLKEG
# MEASUREMENT_DESCRIPTION: Inhibition of recombinant human IDO1 measured after 60 mins by microplate reader assay
Below, each of the compounds is paired with its reported IC50 value.

Sample records with IC50:
SAMPLE_SMILES	MEASURED_ON	MEASUREMENT
CSC(=O)SC	Indoleamine 2,3-dioxygenase 1 (Homo sapiens, UniProt P14902)	> 100 µM
CS/C(=N/C#N)SCc1ccccc1	Indoleamine 2,3-dioxygenase 1 (Homo sapiens, UniProt P14902)	> 10 µM

--- query ---
The measured IC50 that CC(C)(C)OC(=O)NCCSC(=O)SCc1ccccc1 showed for Indoleamine 2,3-dioxygenase 1 (Homo sapiens, UniProt P14902) is > 10 µM

----------
# MEASURED_ON: UniProt P14902
# MEASUREMENT_DESCRIPTION: Inhibition of IDO1 in IFNgamma-induced human A-431 cells assessed as reduction in kynurenine production using tryptophan as substrate measured after 24 hrs by microplate reader assay
# Format: cell-based
MEASURED_ATTRIBUTE: IC50

SAMPLE_SMILES	IC50
CSC(=O)SC	> 10 µM
NCCSC(=O)SCc1ccccc1	> 10 µM
NCCOC(=O)SCc1ccccc1	> 10 µM

Sure, the documented IC50 for CC(C)(C)OC(=O)NCCSC(=O)SCc1ccccc1 is > 10 µM

Sure, the documented IC50 for CC(C)(C)OC(=O)NCCOC(=O)SCc1ccccc1 is > 10 µM
